Molecular target: T1, human glucose-dependent insulinotropic peptide receptor (human, UniProt P48546)
T1 sequence: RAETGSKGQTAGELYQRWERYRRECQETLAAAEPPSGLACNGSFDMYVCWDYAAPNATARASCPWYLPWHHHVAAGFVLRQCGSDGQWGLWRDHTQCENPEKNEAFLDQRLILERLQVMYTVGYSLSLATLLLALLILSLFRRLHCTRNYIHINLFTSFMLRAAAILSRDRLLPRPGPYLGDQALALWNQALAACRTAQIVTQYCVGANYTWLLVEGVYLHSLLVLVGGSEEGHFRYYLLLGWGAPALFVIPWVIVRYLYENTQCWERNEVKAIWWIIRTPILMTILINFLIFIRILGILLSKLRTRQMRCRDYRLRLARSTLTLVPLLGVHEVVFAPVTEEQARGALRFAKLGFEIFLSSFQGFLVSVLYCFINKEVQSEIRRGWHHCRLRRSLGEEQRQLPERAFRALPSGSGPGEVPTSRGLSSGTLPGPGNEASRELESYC
Assay: cell-based or functional assay
Numbered stars: 1 amine (or outer) side, 2 acyl side, 3 side chain; on linkers, the order of the positions; unused ones are H or OH. Square brackets hold non-standard residues; d marks the D form. Side chains are listed from the residue outwards. Ends that are not written are not given here. γGlu = O=C(O)[C@H](CCC(=O)[*:2])N[*:1]; AEEA = NCCOCCOCC(=O)O; Aib = CC(C)(N)C(=O)O
Item-by-item account of Activity for human GIPR (EC50 nM), cAMP HTRF
readout_name: Activity for human GIPR (EC50 nM), cAMP HTRF

binder: Y[Aib]EGTFTSDYSIYLEKIAAQEFVNWLIAGGPSSGAPPPSK([AEEA-AEEA-γGlu-C20‑OH])-NH2 [Compound No. 83]
reported_value: 0.032
--
binder: Y[Aib]EGTFTSDYSIYLEKIAAQEFVNWLLAGGPSSGAPPPSK([AEEA-AEEA-γGlu-C20‑OH])-NH2 [Compound No. 74]
reported_value: 0.046
--
binder: H-Y[Aib]EGTFTSDYSIYLEKEAAKEFVNWLLAGGPSSGAPPPSK-NH2 (not fully specified (residue 40); printed as H-YAibEGTFTSDYSIYLEKEAAKEFVNWLLAGGPSSGAPPPSK / (OEG-OEG-yGlu-C18-OH)-NH2) [Compound No. 25]
reported_value: 0.059
--
binder: Y[Aib]EGTFTSDYSIYLDKIAAK([AEEA-AEEA-γGlu-C18‑OH])EFVNWLLAGGPSSGAPPPS-NH2 [Compound No. 60]
reported_value: 0.02
--
binder: H-Y[Aib]EGTFTSDYSIYLEKIAAQEFVNWLLAGGPSSGAPPPSK-NH2 (not fully specified (residue 40); printed as H-YAibEGTFTSDYSIYLEKIAAQEFVNWLLAGGPSSGAPPPSK / (OEG-OEG-yGlu-C18-OH)-NH2) [Compound No. 28]
reported_value: 0.02
--
binder: H-Y[Aib]EGTFTSDYSIYLEKIAAQEFVNWLLAGKPSSGAPPPS-NH2 (not fully specified (residue 30); printed as H-YAibEGTFTSDYSIYLEKIAAQEFVNWLLAGK(OEG-OEG-yGlu-C18-OH) / PSSGAPPPS-NH2) [Compound No. 29]
reported_value: 0.015
